Procedure text: folding enthalpy; higher = less favourable; fluorescence melt of hairpins on a sequencing array, two-state fit
Experimental conditions: sodium 0.088 M
Below, each entry is listed with its recorded folding enthalpy.
Measurement type: folding enthalpy (kcal/mol)

> print(dat)
                           input.sequence  value.measured
 1  GTATCACCGAAAGGTTAC (((..(((....))))))           -8.26
 2  GTTTGCGAAAGCAACAAC ((((((....)))..)))            -9.1
 3  GAGGGTGGAAACACTCTC (((.(((....))).)))           -29.9
 4  GCTAGCGAAAGCTATAGC ((((((....)))..)))           -18.5
 5  GAGTCCGAAAGGACGCTC ((((((....)))..)))           -13.6
 6      GATCCCGTTCGGGATC ((((((....))))))           -43.2
 7  GGAGGTGGAAACACCCCC ((.((((....)))).))           -18.7
 8  GCGCCCCGAAAGGGTCGC (((.(((....))).)))           -45.8
 9      GATCACAGTAGTGATC ((((((....))))))           -40.1
10  GTAGACGAAAGTCGTTAC ((((((....)))..)))             -11
11  GTTTGGCGAAAGCCTAAC (((.(((....))).)))           -21.8
12              GCGGATTCCCGC ((((....))))           -20.8
13          TCTTGGAAACAAGA (((((....)))))           -11.1
14  GGGTATGGAAACATACTC (.(((((....))))).)             -23
15  GAATACGAAAGTATATTC ((((((....)))..)))           -15.9
16      GATCAACGTATTGATC ((((((....))))))           -26.9
17      GAAGCTGAAAAGCTTC ((((((....))))))           -31.2
18  GATAGCGAAAGCTGAATC ((((((....)))..)))           -10.9
19              GCGACCGTTCGC ((((....))))           -22.8
20  GCCTACGCGAAAGCGGGC (((..(((....))))))           -14.8
21  GCAATGCGAAAGCACGGC ((..(((....)))..))           -19.9
22  GTACATGGAAACGTGTAC (((((.(....).)))))           -32.1
23  GAATATGGAAACATATCC (.(((((....))))).)           -13.6
24  GCCAGTGGAAACGTTGGC ((((..(....)..))))           -24.4
25  GCGTTTGCGAAAGCACGC (((..(((....))))))           -22.6
26          AATACGAAAGTATT (((((....)))))           -15.3

---

Below, each entry is listed with its recorded folding enthalpy.
Procedure text: folding enthalpy; higher = less favourable; fluorescence melt of hairpins on a sequencing array, two-state fit
Experimental conditions: sodium 0.088 M
Measurement type: folding enthalpy

> print(dat)
                           input.sequence  measurement.type  value.measured
 1  GAATGGGGAAACCCGTTC (((.(((....))).)))  folding enthalpy  -35.5 kcal/mol
 2  GCCCCAGGAAACTGGGAC (.(((((....))))).)  folding enthalpy  -15.6 kcal/mol
 3  GTGATTGGAAACAGTCAC ((((.((....)).))))  folding enthalpy  -36.6 kcal/mol
 4  GATACCCGAAAGGGGATC (((.(((....))).)))  folding enthalpy  -30.2 kcal/mol
 5  GAGGACGAAAGTCTGCTC ((((((....)))..)))  folding enthalpy  -14.4 kcal/mol
 6      GATCAAGGAATTGATC ((((((....))))))  folding enthalpy  -31.8 kcal/mol
 7  GTCCTCGAAAGAGAAGAC ((((((....)))..)))  folding enthalpy  -19.8 kcal/mol
 8  GCCTAGCGAAAGCTTCGC ((..(((....)))..))  folding enthalpy  -7.98 kcal/mol
 9  GGTCGCGAAAGCGTTACC ((((((....)))..)))  folding enthalpy  -14.6 kcal/mol
10  GGTGGGGGAAACCCCATC (.(((((....))))).)  folding enthalpy  -24.2 kcal/mol
11  GGAGCCGAAAGGCTGTCC ((((((....)))..)))  folding enthalpy  -8.93 kcal/mol
12  GGAGGTGGAAACACCTCC (((((((....)))))))  folding enthalpy  -40.8 kcal/mol
13  GGTACAGGAAACCGTACC (((((.(....).)))))  folding enthalpy    -33 kcal/mol
14  GCCGGACCGAAAGGTGGC (((..(((....))))))  folding enthalpy  -26.9 kcal/mol
15  GCTCCGGGAAACCAGAGC ((((.((....)).))))  folding enthalpy  -31.9 kcal/mol
16  CGACACGGAAACGTTTCG (((.(((....))).)))  folding enthalpy  -33.7 kcal/mol
17  GCGCAGCGAAAGCAGAGC ((.(.((....)).).))  folding enthalpy  -15.7 kcal/mol
18  GCCACATCGAAAGATGGC (((..(((....))))))  folding enthalpy  -15.2 kcal/mol
19  GCTCGGCGAAAGCTGGGC ((.(.((....)).).))  folding enthalpy  -26.2 kcal/mol
20  GCCATGCGAAAGCCTCGC ((.(.((....)).).))  folding enthalpy  -6.86 kcal/mol
21  GGATCTGGAAACAGGTCC (((.(((....))).)))  folding enthalpy  -31.5 kcal/mol
22  GCCGCGCGAAAGCGTTGC ((..(((....)))..))  folding enthalpy  -14.6 kcal/mol
23      GTAGACGAAAGTCTAC ((((((....))))))  folding enthalpy  -35.9 kcal/mol
24  GCATCCGAAAGGATCTGC ((((((....)))..)))  folding enthalpy  -17.1 kcal/mol
25  GGAAAGCGAAAGCTCTCC (((.(((....))).)))  folding enthalpy  -22.8 kcal/mol
26  GTACAAACGAAAGTTTAC (((..(((....))))))  folding enthalpy  -8.86 kcal/mol
27    GGTTTACGAAAGTAACC (((.(((....))))))  folding enthalpy  -20.6 kcal/mol
28  GTTGCGGGAAACTGCGAC ((.((.(....).)).))  folding enthalpy    -11 kcal/mol
29  GGAGGCGAAAGCCAATCC ((((((....)))..)))  folding enthalpy  -10.4 kcal/mol
30      GATCAAGGTGTTGATC ((((((....))))))  folding enthalpy  -31.7 kcal/mol
31    GAGCGCGAAAGCGTCTC ((((((....))).)))  folding enthalpy  -21.2 kcal/mol
32  GAAGCCGAAAGGCGGTTC ((((((....)))..)))  folding enthalpy  -9.79 kcal/mol
33      GATCTCTCATGAGATC ((((((....))))))  folding enthalpy  -44.1 kcal/mol
34  GCAGAGACGAAAGTCTGC (((..(((....))))))  folding enthalpy  -19.6 kcal/mol
35      GATCTACATTTAGATC ((((((....))))))  folding enthalpy  -35.3 kcal/mol
36  GTGGAGGGAAACCTTCGC (.(.(((....))).).)  folding enthalpy  -26.7 kcal/mol
37  GGGAGCCGAAAGGCACCC (((.(((....))).)))  folding enthalpy  -29.5 kcal/mol
38  CGTCAACGGAAACGTACG (((..(((....))))))  folding enthalpy  -11.4 kcal/mol
39    GATGCCGAAAGGCAATC ((((((....))).)))  folding enthalpy  -13.8 kcal/mol
40  GAGTTCGGAAACGAACCC (.(((((....))))).)  folding enthalpy  -13.3 kcal/mol
41      GATCGCTAGAGCGATC ((((((....))))))  folding enthalpy  -34.2 kcal/mol
42      GATCATCTAGATGATC ((((((....))))))  folding enthalpy  -43.8 kcal/mol
43    GAGCACGAAAGTGGCTC ((((((....))).)))  folding enthalpy  -24.2 kcal/mol
44    GATCAGCGAAAGCTATC (((.(((....))))))  folding enthalpy    -12 kcal/mol
45      GATCCCTAGAGGGATC ((((((....))))))  folding enthalpy  -40.2 kcal/mol
46        GATCCTCATAGGATC ((((((...))))))  folding enthalpy  -37.4 kcal/mol
47      GTTGAAGAAATTCAAC ((((((....))))))  folding enthalpy  -27.1 kcal/mol
48      GTGCTTGAAAAAGCAC ((((((....))))))  folding enthalpy  -27.9 kcal/mol
49  GCGTGGCGAAAGCACCGC (((..((....))..)))  folding enthalpy  -31.9 kcal/mol
50  GCCCAGCGAAAGCCGCGC ((.(.((....)).).))  folding enthalpy  -10.1 kcal/mol
